This listing pairs binders with measured OD450.
TARGET OR TEST SYSTEM: T1, human TIM-3 protein with hFc tag (hTIM-3-hFc protein) (human, UniProt Q8TDQ0 22-200)
T1 construct: also called immunogen 1; human TIM-3 extracellular domain protein; not shown: human IgG Fc fragment (hFc) of the pCpC vector
T1 sequence: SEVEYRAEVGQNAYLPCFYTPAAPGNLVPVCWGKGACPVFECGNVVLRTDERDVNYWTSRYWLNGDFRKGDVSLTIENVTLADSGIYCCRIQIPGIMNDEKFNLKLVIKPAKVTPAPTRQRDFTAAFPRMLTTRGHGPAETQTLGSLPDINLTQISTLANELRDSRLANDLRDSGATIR
METHOD NOTES: ELISA, coated hTIM-3-hFc; antibody 0 nM (blank)
Please reply with the number alone, leaving off any unit.

Worked examples follow.
7A4F10 (TIM-3 antibody purified from hybridoma, chimeric antibody of Example 2) (antibody, V domains shown, From hybridoma of Harbour H2L2 transgenic mice: human variable regions, rat constant regions) VH: EVQLLESGGGLVQPGGSLRLSCAASGFTFRTHLISWVRQAPGKGLEWVAAITGSGGSTYYADSVKGRFIISRDNSKNTLFLQMNSLRAEDTAVYYCAKDGGSGSYDDFWGQGTLVTVSS VL: ETVLTQSPVTLSLSPGERATLSCRASQSVGSYLAWYQQKPGQAPRLLIYDASNRATGIPARFSGSGSGTDFTLTISSLEPEDFAVYYCQQRSNWPPTFGQGTKVEIK	0.11
34B6D8 (TIM-3 antibody purified from hybridoma, chimeric antibody of Example 2) (antibody, V domains shown, From hybridoma of Harbour H2L2 transgenic mice: human variable regions, rat constant regions) VH: EVQLVESGGGLVQPGGSLRLSCAASGFTFSTYWMTWVRQAPGKRLEWVANIKQGGGDKYYVDSVKGRFTISTDNAKNSLYLQMNSLRAEDTAVYYCARGSNWFDPWGQGTLVTVSS VL: EIVMTQSPATLSMSPGERATLSCRASQSVYDNLAWYQQKPGQAPRLLIYGASTRATGIPARFSGSGSGTEFTLTISSLQSEDFALYYCQQYTHWPITFGQGTRLEIK	0.12

[in] Give its OD450 value. Item: 57F4E5 (TIM-3 antibody purified from hybridoma, chimeric antibody of Example 2) (antibody, V domains shown, From hybridoma of Harbour H2L2 transgenic mice: human variable regions, rat constant regions) VH: EVQLVESGGGLVQPGGSLRLSCAASGFTFSSYWMSWVRQAPGKGLEWVANIKQDGSEKYYVDSVKGRFTISRDSAKNSLYLQMNSLRAEDTAMYFCARDSNFFDYWGQGTLVTVSS VL: ETVMTQSPATLSVSPGERATLSCRASQSVSSNLAWYQRKPGQAPRLLIYFSSTRATGIPARFSGSGSGTEFTLTISSLQSEDFAVYYCQQYNNWPLTFGGGTKVEIK
[out] 0.12
